target: FSHR (Homo sapiens); construct: expressed in transfected cells; host or cells: CHO (Cho-FSHR-LUC-1-1-43); assay: EC50 of cyclic AMP production in CHO FSHR cells + EC20 FSH (HTRF); format: cell-based; conditions: 1 h; Cho-FSHR-LUC-1-1-43 cells, + EC20 FSH; % effect in brackets; read-out: EC50 of cAMP production (% effect)
Sequence (P23945 18-695): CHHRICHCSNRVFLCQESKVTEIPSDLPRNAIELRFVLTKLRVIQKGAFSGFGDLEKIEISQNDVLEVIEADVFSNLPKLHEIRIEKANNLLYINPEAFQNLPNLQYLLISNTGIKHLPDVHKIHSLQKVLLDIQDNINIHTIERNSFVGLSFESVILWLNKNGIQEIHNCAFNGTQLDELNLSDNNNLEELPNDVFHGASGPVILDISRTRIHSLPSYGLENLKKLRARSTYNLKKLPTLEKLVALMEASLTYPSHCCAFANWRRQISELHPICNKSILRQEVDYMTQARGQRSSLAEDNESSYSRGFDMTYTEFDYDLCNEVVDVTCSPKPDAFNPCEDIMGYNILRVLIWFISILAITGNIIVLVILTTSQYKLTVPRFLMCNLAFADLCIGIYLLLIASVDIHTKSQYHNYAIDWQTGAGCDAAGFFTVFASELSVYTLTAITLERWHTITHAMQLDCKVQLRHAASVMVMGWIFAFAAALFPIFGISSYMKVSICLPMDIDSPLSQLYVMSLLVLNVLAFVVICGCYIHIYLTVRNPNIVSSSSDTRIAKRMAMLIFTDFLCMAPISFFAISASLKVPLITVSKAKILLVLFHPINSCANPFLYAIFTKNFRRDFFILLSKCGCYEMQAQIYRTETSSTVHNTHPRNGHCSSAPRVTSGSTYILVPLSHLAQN
assay-endpoint: Emax
Could you write the number and then its unit?

Which value of Emax has been reported for [2H]c1c([2H])c([2H])c(C#Cc2c([2H])c([2H])c([C@H]3N(c4cccc(C(N)=O)c4)C(=O)[C@@H](CC(=O)NC([2H])([2H])C([2H])([2H])c4ccc(OC([2H])([2H])[2H])c(OCC)c4)[S@@+]3[O-])c([2H])c2[2H])c([2H])c1[2H] (single isomer, unassigned) [Compound 20] in the records? 103%

Please look up its Emax: [2H]c1c([2H])c([2H])c(C#Cc2ccc([C@@H]3S[C@H](CC(=O)NC([2H])([2H])C([2H])([2H])c4ccc(OC)c(OCC)c4)C(=O)N3c3cccc(C(N)=O)c3)cc2)c([2H])c1[2H] (single isomer, unassigned) [Compound 9] 97%

Data request, read-out Emax, for [2H]C([2H])([2H])Oc1ccc(C([2H])([2H])C([2H])([2H])NC(=O)C[C@H]2S[C@@H](c3ccc(C#Cc4ccccc4)cc3)N(c3cccc(C(N)=O)c3)C2=O)cc1OC [Compound 3] 97%

Name the recorded Emax for [2H]c1c([2H])c([C@@H]2S[C@H](CC(=O)NC([2H])([2H])C([2H])([2H])c3ccc(OC([2H])([2H])[2H])c(OC([2H])([2H])[2H])c3)C(=O)N2c2cccc(C(N)=O)c2)c([2H])c([2H])c1C#Cc1ccccc1 [Compound 17] . 100%
